Listed below: z-score values for each entry.
Assay: basal 3T3-L1 adipocyte mitochondrial potential changes, profiling panel, cell-based, JC-1 fluorescence, 3T3-L1 adipocytes, 24 h, 100 nL compound (AID 1168); note: test concentration not given here
Conditions: JC-1 mitochondrial fluorescence, higher = more signal, called active from +8 up or from −8 down

compound: COCCOC(=O)N1C(=O)[C@@]2(c3cc(C#CC4(O)CCCCCC4)ccc31)[C@H](c1ccc(OCCO)cc1)N1[C@H](c3ccccc3)[C@H](c3ccccc3)OC(=O)[C@H]1[C@@H]2C(=O)N1CCN(c2ncccn2)CC1
z-score: 0.295
//
compound: C=C(/C(=C/C[C@H](OC(C)=O)c1ccccc1OCCO)c1cnc2ccccc2c1)C(C)C
z-score: -1.34
//
compound: C=CCN1C(=O)[C@@]2(Cc3ccccc31)N=C(c1ccc(OCCCO)cc1)O[C@H]2c1ccccc1
z-score: 0.133
//
compound: CC[C@@H]1C=C(C(=O)O)[C@H](c2ccc(Br)cc2)N1S(=O)(=O)c1ccc(C)cc1
z-score: -0.258
//
compound: CC(C)C(=C=CC[C@H](O)c1ccc(OCCO)cc1)CCO
z-score: -0.722
//
compound: C[N+](C)(C)CCCC[C@@H]1NC(=O)[C@H]2C[C@@H](C(=O)NCCCCCCNC(=O)CS)[C@@H](c3cccc(OCCO)c3)N2C1=O
z-score: 0.0973
//
compound: CCOC(=O)C[C@H]1[C@H](OC(=O)c2ccc(C(=O)c3ccccc3)cc2)[C@@H](NC(=O)c2ccccc2)c2cc(OCCCO)ccc2N1C(=O)Cc1ccc(OC)cc1
z-score: 0.591
//
compound: Cc1ccccc1C(O)C1C=CC2C(=O)N(c3ccccc3)C(=O)C2N1Nc1ccc(C(C)C)cc1 (stereo not drawn)
z-score: -1.8
//
compound: CCCC[C@@H]1C[C@H]1[C@@H](NC(=O)c1ccco1)c1ccc(-c2ccccc2)cc1
z-score: -0.168
//
compound: C=CCOC(=O)[C@H]1[C@@H]2C(=O)O[C@@H](c3ccccc3)[C@@H](c3ccccc3)N2[C@@H](c2ccc(OCCOC(=O)[C@H]3C[C@H]4C(=O)N[C@@H](CCCCNC(C)=O)C(=O)N4[C@H]3c3cccc(OCCO)c3)cc2)[C@]12C(=O)Nc1ccccc12
z-score: 1.91
//
compound: CN(C)CCCCCCNC(=O)[C@H]1C[C@H]2C(=O)N3CCC[C@H]3C(=O)N2[C@H]1c1ccc(O)cc1
z-score: 0.597
//
compound: NC(=O)[C@@H]1[C@H]2C(=O)O[C@H](c3ccccc3)[C@H](c3ccccc3)N2[C@H](c2ccc(O)cc2)[C@@]12C(=O)Nc1ccccc12
z-score: -0.0789
//
compound: C=C[C@H](C)[C@@H](OC(=O)Nc1ccc(OC)cc1)c1ccc(O)c2ccccc12
z-score: -1.19
//
compound: COC(=O)[C@@]1(Cc2ccc(F)cc2)[C@H]2c3cc(C(=O)N4CCCC4)n(CCCNc4ncc(C(F)(F)F)cc4Cl)c3C[C@H]2CN1C(=O)c1ccccc1
z-score: -1.8
//
compound: O=C1C[C@@](C(=O)NCCN2CCOCC2)(c2ccc([N+](=O)[O-])cc2)[C@@H](c2ccc(CO)cc2I)N1CC12CC3CC(CC(C3)C1)C2
z-score: 0.981
//
compound: O=C(NCCN1CCOCC1)[C@@H]1c2ccccc2C(=O)N(C2CCCCC2)[C@H]1c1ccc(CO)cc1
z-score: -0.0789
//
compound: Cc1ccc(S[C@]2(C(=O)NCCCN(C)C)CC(=O)N(Cc3cc(C(F)(F)F)cc(C(F)(F)F)c3)[C@@H]2c2ccc(CO)cc2I)cc1
z-score: 0.669
//
compound: CCS[C@H]1[C@@H](C(=O)O)[C@H](c2ccc(C)cc2)N(S(=O)(=O)c2ccc(C)cc2)[C@@H]1CC
z-score: 0.337
//
compound: COC(=O)[C@@]1(Cc2ccc(OC)cc2)[C@H]2c3cc(C(=O)N(C)C)n(CCc4ccccn4)c3C[C@H]2CN1C(=O)c1ccccc1
z-score: -1.04
//
compound: COc1ccc(CCNC(=O)[C@@]2(Sc3ccc(C)cc3)CC(=O)N(C3Cc4ccccc4C3)[C@@H]2c2ccc(CO)cc2I)cc1
z-score: -0.279
//
compound: [N-]=[N+]=NCc1ccccc1C[C@]1(C(=O)N2CCCCC2)N=C(c2ccc(OCCCO)cc2)O[C@H]1c1ccccc1N=[N+]=[N-]
z-score: -0.187
//
compound: CN1C(=O)C2C=CC(C(O)C3CC=CCC3)N(N(c3ccccc3)c3ccccc3)C2C1=O (stereo not drawn)
z-score: -0.339
//
compound: C=C[C@H](OC)[C@@H](OC(=O)Nc1ccc(OC)cc1)c1ccc(O)c(F)c1
z-score: 0.313
//
compound: OCCCC1=CC(c2cccs2)N(Cc2cc3c(cc2Br)OCO3)CC1 (stereo not drawn)
z-score: -0.359
//
compound: COCCOC(=O)N1C(=O)[C@@]2(c3cc(C#Cc4ccc(OC)cc4)ccc31)[C@H](c1ccc(OCCO)cc1)N1[C@H](c3ccccc3)[C@H](c3ccccc3)OC(=O)[C@H]1[C@@H]2C(=O)N1CCN(c2ncccn2)CC1
z-score: 2.18
//
compound: CCCC[C@H]1OB(O)C[C@H]2C1=C(COC)Cn1c(=O)n(-c3ccccc3)c(=O)n12
z-score: -0.199
//
compound: NC(=O)NCC#Cc1ccc2c(c1)[C@]1(C(=O)N2)[C@H](C(=O)Nc2nc3ccccc3s2)[C@H]2C(=O)O[C@H](c3ccccc3)[C@H](c3ccccc3)N2[C@@H]1c1ccccc1OCCO
z-score: 2.92
//
compound: CC(C)N1C(=O)c2ccccc2[C@](C)(C(=O)NCCN2CCOCC2)[C@@H]1c1ccc(CO)cc1
z-score: -0.537
